Test system: M14 melanoma
ASSAY_NOTES: NCI tumour cell line growth inhibition, 48 h
Entries and their TGI values follow.
Note: unit µM is implicit; provide only the numeric part.

>  <COMPOUND>
CCCCCCCCCCCCCCCCCCOCC1(COP(=O)([O-])OCC[N+](C)(C)C)CCCO1 (centres undefined)

>  <TGI, µM>
8.59

$$$$

# compound CCCCCCCCCCCCCCCCCCNC(=S)/N=C/c1c(O)cc(C)oc1=O ; its TGI = 41.9

###

Test system: HOP-92 NSCLC
ASSAY_NOTES: NCI tumour cell line growth inhibition, 48 h; in the data active = GI50 below about 0.43 µM; inactive = the rest
Would you mind answering with one of these outcomes? 1 = active, -1 = inactive

Record excerpt, results attached:
>  <MOLECULE>
OCCCCC#Cc1ccccc1C#Cc1cccs1

>  <ANSWER_LABEL>
-1

$$$$
>  <MOLECULE>
NCCCn1c2c(c3ccc([N+](=O)[O-])cc3c1=O)C(=O)c1cc(Cl)ccc1-2

>  <ANSWER_LABEL>
1

$$$$
>  <MOLECULE>
CCN1CCN(c2cc(C)nc(NCc3cc(Nc4ccnc5cc(Cl)ccc45)ccc3F)n2)CC1

>  <ANSWER_LABEL>
-1

$$$$
>  <MOLECULE>
COc1ccc2nc(C3=CN(C4OC(CO)C(O)C(O)C4O)C4C=CC=CC34)sc2c1 (stereo not given)

>  <ANSWER_LABEL>
-1

$$$$

Pending molecule:
Would you mind telling me which call this test gave CCOC(=O)c1cn2ncnc(Oc3ccc(NC(=O)NCCN(CC)CC)c(Cl)c3)c2c1C ?
-1

###

System: P388 leukemia
ASSAY_NOTES: NCI tumour cell line growth inhibition, 48 h
PROPERTY_MEASURED: TGI (µM)
Note: unit µM is implicit; provide only the numeric part.

>  <SMILES>
N/C(=N\N=C/c1cc(Cl)cc(Cl)c1O)NO

>  <PROPERTY_MEASURED>
TGI

>  <QUANTITATIVE_READOUT>
1.49

$$$$
>  <SMILES>
CO[C@@]12[C@H](COC(N)=O)C3=C(C(=O)C(C)=C(N)C3=O)N1C[C@@H]1N[C@@H]12

>  <PROPERTY_MEASURED>
TGI

>  <QUANTITATIVE_READOUT>
9.62

$$$$
>  <SMILES>
COC(=O)C[C@](O)(CCC(C)(C)O)C(=O)O[C@@H]1C(OC)=C[C@]23CCCN2CCc2cc4c(cc2[C@H]13)OCO4

>  <PROPERTY_MEASURED>
TGI

>  <QUANTITATIVE_READOUT>
0.133

$$$$

Then this compound:
# compound CCCCc1oc2ccccc2c1C(=O)c1cc(I)c(OCCN(CC)CC)c(I)c1 ; its TGI = 11.2

###

System: SK-MEL-5 melanoma
ASSAY_NOTES: NCI tumour cell line growth inhibition, 48 h
PROPERTY_MEASURED: TGI (µM)
Note: unit µM is implicit; provide only the numeric part.

# count of solved cases: 3
>  <MOLECULE>
Nc1n[n+]([O-])c2cnccc2[n+]1[O-]

>  <QUANTITATIVE_READOUT>
30

$$$$
>  <MOLECULE>
COc1cc(/C=N/O)nc(-c2ccccn2)c1

>  <QUANTITATIVE_READOUT>
1.31

$$$$
>  <MOLECULE>
CCCCCC/C=C\CCCCCCCCCc1c(O)c(OC)cc(O)c1CN(C)C

>  <QUANTITATIVE_READOUT>
18.6

$$$$

# molecule CC1(C)OCC(C2OC(=O)C(OCc3ccccc3)=C2OCc2ccccc2)O1 (stereo not drawn) ; its TGI = 32.3

###

Tested on: CCRF-CEM leukemia
ASSAY_NOTES: NCI tumour cell line growth inhibition, 48 h
Entries and their TGI values follow.

>  <COMPOUND>
CC(C)[C@H](O)C(=O)N[C@H]1Cc2ccc3c(c2)[C@]24C5=C(N=C(O5)[C@H](C(C)C)NC1=O)c1nc(Cl)c(o1)-c1c(Cl)[nH]c5cccc(c15)-c1cccc2c1N[C@H]4O3

>  <PROPERTY_MEASURED>
TGI

>  <RESULT>
0.0277 µM

$$$$
>  <COMPOUND>
C=CC1=C(C)C(Cc2[nH]c(/C=c3\[nH]/c(=C/C4=NC(=O)C(C)/C4=C\C)c(C)c3CCC(=O)O)c(CCC(=O)OC)c2C)NC1=O (stereo not given)

>  <PROPERTY_MEASURED>
TGI

>  <RESULT>
> 100 µM

$$$$
>  <COMPOUND>
S=C1NC2=C(COC/C2=C\c2ccccc2Cl)C(c2ccccc2Cl)N1 (stereo not given)

>  <PROPERTY_MEASURED>
TGI

>  <RESULT>
45.1 µM

$$$$
>  <COMPOUND>
OC1NC2CC3NC(O)C(O)NC3CC2NC1O (stereo not given)

>  <PROPERTY_MEASURED>
TGI

>  <RESULT>
> 100 µM

$$$$
>  <COMPOUND>
COc1cc(CCC(=O)NS(=O)(=O)c2ccccc2)cc(OC)c1OC

>  <PROPERTY_MEASURED>
TGI

>  <RESULT>
> 100 µM

$$$$
>  <COMPOUND>
COC(=O)NN=C1C(C)(C)C(=NNC(=O)OC)C1(C)C

>  <PROPERTY_MEASURED>
TGI

>  <RESULT>
> 72.3 µM

$$$$

# compound O=C(/C=C\c1ccc(OCCCCCC[P+](c2ccccc2)(c2ccccc2)c2ccccc2)cc1)c1ccc2c(c1)OCCO2 ; its TGI = 6.15 µM

# compound CCOC(=O)CC(=Nc1cc(C)on1)N(CC)CC ; its TGI = > 100 µM

# compound O=C(NN1C(=O)C(Cl)C1c1ccc([N+](=O)[O-])cc1)c1ccccc1O (stereo not given) ; its TGI = > 100 µM

# compound Cc1ccc2oc(=O)cc(C3c4ccc([nH]4)C(c4cc(=O)oc5ccc(C)cc45)c4ccc([nH]4)C(c4cc(=O)oc5ccc(C)cc45)c4ccc([nH]4)C(c4cc(=O)oc5ccc(C)cc45)c4ccc3[nH]4)c2c1 (stereo not given) ; its TGI = > 100 µM

# compound Cc1ccc(N2C(=O)C(O)=C(C(=O)C(C)(C)C)C2c2ccc([N+](=O)[O-])cc2)cc1 (stereo not given) ; its TGI = > 100 µM

# compound CC1=NN(c2cccc(Cl)c2)C2(C1)SCC(=O)N2c1nc2ccccc2s1 (stereo not given) ; its TGI = 62.6 µM

# compound COc1ccc(CCN2CCOCC2)cc1 ; its TGI = > 100 µM

# compound Oc1cccc2nc3cc(CN4CCOCC4)c(CN4CCOCC4)cc3nc12 ; its TGI = > 100 µM

###

Entries and their TGI values follow.
Test system: KM12 colon
ASSAY_NOTES: NCI tumour cell line growth inhibition, 48 h
Note: unit µM is implicit; provide only the numeric part.

# count of solved cases: 2
>  <COMPOUND>
O=C(Nc1ccccc1)OCc1nc2c([nH]1)C(=O)C=CC2=O

>  <TGI, µM>
29

$$$$
>  <COMPOUND>
CCCCCCCCCCCCCCCCCCOCC1(COP(=O)([O-])OCC[N+](C)(C)C)CCCO1 (stereo unspecified)

>  <TGI, µM>
3.33

$$$$

Then this compound:
# compound CC1=NN(c2cccc(Cl)c2)C2(C1)SCC(=O)N2c1nc2ccccc2s1 (stereo unspecified) ; its TGI = 69.2

###

Entries and their TGI values follow.
Test system: OVCAR-3 ovarian
ASSAY_NOTES: NCI tumour cell line growth inhibition, 48 h

>  <COMPOUND>
CC(=O)O[C@@H]1CC2[C@@H](CCC3Cc4nc5c(nc4C[C@@]32C)CC2CC[C@@H]3C(CC[C@@]4(C)C3CC[C@@H]4C(C)CCCC(C)C)[C@@]2(C)C5)C2C[C@@H]3OC4(CCC(C)CO4)C(C)[C@@H]3[C@]21C (some centres undefined)

>  <TGI>
> 100 µM

$$$$

# compound C/C(CC(=O)Nc1ccc(NC(=O)/C(C)=N/NS(=O)(=O)c2ccc(C)cc2)cc1)=N\NS(=O)(=O)c1ccc(C)cc1 ; its TGI = > 100 µM

# compound CCC(C)c1cnc(CC(C)C)c(=O)[nH]1 (centres undefined) ; its TGI = > 100 µM

# compound COC(=O)c1cccc2c1Oc1ccccc1S2 ; its TGI = > 100 µM

# compound CC(=O)C1C(=O)C(=O)N(c2ccc([N+](=O)[O-])cc2Cl)C1=O (centres undefined) ; its TGI = > 100 µM

###

Entries and their TGI values follow.
Test system: DMS 114 small cell lung
ASSAY_NOTES: NCI tumour cell line growth inhibition, 48 h
Note: unit µM is implicit; provide only the numeric part.

# count of solved cases: 2
>  <MOLECULE>
CCCCCCCCCCCCOC(=S)NC

>  <OUTPUT_UNIT>
µM

>  <QUANTITATIVE_READOUT>
37.5

$$$$
>  <MOLECULE>
O/N=C1/C(=C/c2ccc(Cl)cc2)CCCC1C(NO)c1ccc(Cl)cc1 (configuration not stated)

>  <OUTPUT_UNIT>
µM

>  <QUANTITATIVE_READOUT>
81.8

$$$$

Then this molecule:
# molecule CCN1CCC(O)(c2ccc(Cl)c(Cl)c2)C(C(=O)c2ccc(Cl)c(Cl)c2)C1 (configuration not stated) ; its TGI = 33.9

Reference for the values: PubChem BioAssay (NCI)
